# assayTarget: human ether-à-go-go-related gene (hERG) potassium channel (human);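 further: peak tail current of the secondary pulse compared with the same well before compound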
# Sequence (Q12809 whole entry, looked up): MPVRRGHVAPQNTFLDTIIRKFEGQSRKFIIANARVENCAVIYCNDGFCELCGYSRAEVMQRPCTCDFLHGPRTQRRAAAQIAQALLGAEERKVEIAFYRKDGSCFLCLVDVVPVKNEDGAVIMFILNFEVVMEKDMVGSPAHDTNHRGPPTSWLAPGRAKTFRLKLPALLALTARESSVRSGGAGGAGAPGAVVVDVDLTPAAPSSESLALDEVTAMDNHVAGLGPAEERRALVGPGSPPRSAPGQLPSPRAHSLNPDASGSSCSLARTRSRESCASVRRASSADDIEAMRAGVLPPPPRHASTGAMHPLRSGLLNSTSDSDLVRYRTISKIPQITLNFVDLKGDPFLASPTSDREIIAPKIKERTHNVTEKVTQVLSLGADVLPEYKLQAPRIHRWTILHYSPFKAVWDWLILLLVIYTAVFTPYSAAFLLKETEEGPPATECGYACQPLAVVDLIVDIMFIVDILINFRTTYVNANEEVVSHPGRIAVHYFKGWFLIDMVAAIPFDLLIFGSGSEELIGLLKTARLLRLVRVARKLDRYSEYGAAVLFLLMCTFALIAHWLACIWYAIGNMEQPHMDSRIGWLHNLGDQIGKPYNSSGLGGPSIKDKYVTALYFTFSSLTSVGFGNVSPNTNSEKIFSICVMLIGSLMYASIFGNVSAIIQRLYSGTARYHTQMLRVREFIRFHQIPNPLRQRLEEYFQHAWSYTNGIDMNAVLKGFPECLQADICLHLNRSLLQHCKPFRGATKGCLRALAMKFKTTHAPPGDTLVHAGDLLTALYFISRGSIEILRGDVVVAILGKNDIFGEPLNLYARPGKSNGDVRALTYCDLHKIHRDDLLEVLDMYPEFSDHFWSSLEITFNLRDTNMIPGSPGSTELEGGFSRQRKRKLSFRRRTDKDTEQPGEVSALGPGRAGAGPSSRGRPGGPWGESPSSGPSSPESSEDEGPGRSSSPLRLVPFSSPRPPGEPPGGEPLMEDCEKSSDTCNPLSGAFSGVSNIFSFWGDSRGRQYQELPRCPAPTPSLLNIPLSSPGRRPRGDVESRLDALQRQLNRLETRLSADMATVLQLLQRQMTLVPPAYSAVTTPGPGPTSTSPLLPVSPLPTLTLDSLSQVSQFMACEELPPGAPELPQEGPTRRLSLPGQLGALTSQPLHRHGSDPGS
# testDetails: primary screen, population patch clamp on CHO cells stably expressing hERG; higher = less effect of the substance
Among all 310,000 compounds or so, about 14,000 (4.5%) showed an effect of 50% or more. The effect is printed as a negative number. The full list was thinned out, with strong results kept by preference.
quantityMeasured: hERG current change (%, negative = inhibition) at 10uM (%)
Use % as the unit, but write only the number.

> print(dat)
                                   molecule  valuereported
1  COc1ccc(C(=O)NCC(=O)OCC(=O)Nc2cc([N+](=O)[O-])ccc2F)cc1          -23.4
2  CCCCNC(=O)CS(=O)Cc1nc(-c2ccc(C)cc2)oc1C (stereo not shown)          -17.5
3  CC(C)(C)n1nc2c(c1NC(=O)c1ccc(F)c(F)c1)CS(=O)(=O)C2           3.79
4           Cc1ccc(CSc2nnc(C)c(=O)[nH]2)cc1           10.9
5  Cc1ccc(NC(=O)CSc2nnc3ccc(-c4cccnc4)nn23)cc1          -49.3

Please fill in: hERG current change (%, negative = inhibition) at 10uM reported for CN(CC(=O)Nc1ccc(Cl)c(C(F)(F)F)c1)C(=O)C1CCC1 = -14.8

Reported hERG current change (%, negative = inhibition) at 10uM for CCOC(=O)C1(Cc2ccccc2)CCCN(C(=O)c2cnn(CC)c2)C1 (stereo not shown) was 10.1

Sure, the documented hERG current change (%, negative = inhibition) at 10uM for C=CCN(CC=C)Cc1c(O)ccc2c(=O)c(-c3ccccc3)coc12 is -16.9

Note to self: hERG current change (%, negative = inhibition) at 10uM recorded for CN(Cc1c(O)ccc2c1oc(=O)c1ccccc12)C1CCCCC1 was -42.8

hERG current change (%, negative = inhibition) at 10uM reading for S=c1[nH]nc(COc2ccccc2)n1/N=C/c1cccc(Br)c1 : 22.2

Cited source: paper PMC4336329
